# subject.of.test: T1, baboon EL (baboon)
# T1 construct: Heparin extract
# protocol.details: Biacore; EL captured by anti-C2-tag Ab; bivalent fit
Entries and their measured kon follow.
Report the figure in M⁻¹ s⁻¹ without appending any unit label.

# binder, value.unit, kon
measured = [
    ("7D4 (antibody, mouse IgG1, V domains shown, mouse IgG1 from hybridoma) VH: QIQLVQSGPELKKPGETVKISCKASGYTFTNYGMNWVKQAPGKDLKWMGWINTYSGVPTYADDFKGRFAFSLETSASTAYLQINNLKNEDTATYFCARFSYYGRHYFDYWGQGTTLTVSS VL: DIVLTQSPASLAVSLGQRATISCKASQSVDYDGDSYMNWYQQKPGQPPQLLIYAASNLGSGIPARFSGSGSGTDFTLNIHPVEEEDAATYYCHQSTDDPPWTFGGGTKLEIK", "M⁻¹ s⁻¹", 78000),
]

For the next question, use this binder.
Which kon is listed for 55A1 (antibody, mouse IgG2a, V domains shown, mouse IgG2a from hybridoma; also called 55A1 (mouse mAb)) VH: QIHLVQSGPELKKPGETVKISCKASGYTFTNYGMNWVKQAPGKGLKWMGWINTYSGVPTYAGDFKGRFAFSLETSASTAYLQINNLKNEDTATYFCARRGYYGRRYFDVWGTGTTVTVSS VL: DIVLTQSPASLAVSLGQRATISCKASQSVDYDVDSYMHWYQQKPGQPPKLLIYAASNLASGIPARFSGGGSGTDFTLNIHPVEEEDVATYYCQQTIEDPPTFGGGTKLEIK ?
350000
